Assign Inhibition IC50 of STAT5 reporter gene to each entry below.
# Target desc: human TSLP recombinant protein (human, UniProt Q969D9 29-159, biotinylated in the blocking and cell-binding assays (sites not given))
# Procedure text: cell-based or functional assay
Answers are plain numbers, in nM.

Hi team, please reply with Inhibition IC50 of STAT5 reporter gene for each item in this list.
1. 76A8 chimeric antibody (antibody, V domains shown) VH: QVQLQQSGPQLVRPGASVKISCKASGYSFTSYWMHWVKQRPGQGLEWIGLIDPSDSETGLNQRFKDKATLTVDNPSSTAYMQLSSPTSEDSAVYYCARSLDGYYDYWGQGTTLTVSS VL: DIQMIQSPASLSASVGETVTITCRASGNIHNYLAWYQQKQGKSPQLLVYNAKTLADGVPSRFSGSGSGTQYSLKINSLQPEDFGSYYCQHFWSTPWTFGGGTRLEIK
2. 80B12 chimeric antibody (antibody, V domains shown) VH: QVQLQQSGPQLVRPGASVKISCKASGYSFTTYWMHWVKQRPGQGLEWIGLIDPSDGEAGLNQNFKDKATLTVDISSRTAYMQISSPTSEDSAVYFCARSLDGYYDYWGQGTTLTVSS VL: DIQMTQSPASLSASVGETVTITCRASEDIYSYLAWYQQKQGKSPQLLVYNAKTLAEGVPSRFSGSGSGTQFSLKINSLQPEDFGSYYCQHFWSTPWTFGGGTKLELK
3. 39G5-H8 chimeric antibody (antibody, V domains shown) VH: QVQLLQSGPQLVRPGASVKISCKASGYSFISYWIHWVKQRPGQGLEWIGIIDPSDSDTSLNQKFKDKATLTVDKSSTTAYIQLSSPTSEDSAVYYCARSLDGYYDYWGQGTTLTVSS VL: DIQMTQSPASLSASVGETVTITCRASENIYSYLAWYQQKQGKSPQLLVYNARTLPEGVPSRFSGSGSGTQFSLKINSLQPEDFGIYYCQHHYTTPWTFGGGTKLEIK

Ans.
1. 9.78
2. 5.79
3. 3.33
